# Measured Target: Gal(b1-4)GlcNAc(b1-2)Man(a1-3)[Gal(b1-4)GlcNAc(b1-2)Man(a1-6)]Man(b1-4)GlcNAc(b1-4)GlcNAc
# Measurement Description: glycan array binding signal (z-score within array); higher = stronger binding
# Experimental Conditions: glycan notation: IUPAC condensed, linker removed
This is one part of a sample in which the strongest signals are shown more often than they occur.
Measured Quantity: glycan array binding signal (z-score)

{"Binder": "Strep tagII-anxA1 (Homo sapiens), P04083 (protein) MAMVSEFLKQAWFIENEEQEYVQTVKSSKGGPGSAVSPYPTFNPSSDVAALHKAIMVKGVDEATIIDILTKRNNAQRQQIKAAYLQETGKPLDETLKKALTGHLEEVVLALLKTPAQFDADELRAAMKGLGTDEDTLIEILASRTNKEIRDINRVYREELKRDLAKDITSDTSGDFRNALLSLAKGDRSEDFGVNEDLADSDARALYEAGERRKGTDVNVFNTILTTRSYPQLRRVFQKYTKYSKHDMNKVLDLELKGDIEKCLTAIVKCATSKPAFFAEKLHQAMKGVGTRHKALIRIMVSRSEIDMNDIKAFYQKMYGISLCQAILDETKGDYEKILVALCGGN", "Val": -0.682}
